Cited source: PubChem BioAssay

- Assay info: LAP4-GFP expression modulators in yeast, confirmation, cell-based, cherry picks, flow cytometry, mother/daughter gates (AID 2271);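 note: ratio of sample to DMSO plate mean so 100% equals DMSO level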
- Experimental conditions: S. cerevisiae LAP4-GFP strain, 3 h, measured here: mother cell gate response, at 10 µM, stronger effect = higher value, 100 means same as DMSO control

[
  {
    "Compound": "Oc1c(CN2CCN(c3ccc(F)cc3)CC2)cc(Cl)c2cccnc12",
    "Endpoint unit": "%",
    "GFP response relative to DMSO": 245
  },
  {
    "Compound": "CCOc1ccc(CNC(=O)CCC(=O)N2Cc3cccc(OC)c3Oc3ncccc32)cc1",
    "Endpoint unit": "%",
    "GFP response relative to DMSO": 96.1
  },
  {
    "Compound": "C[n+]1ccc(/C=C/c2c[nH]c3ccc(F)cc23)cc1",
    "Endpoint unit": "%",
    "GFP response relative to DMSO": 115
  },
  {
    "Compound": "COc1cccc(C(=O)N/N=C(\\CC(C)C)c2ccccc2)c1",
    "Endpoint unit": "%",
    "GFP response relative to DMSO": 102
  },
  {
    "Compound": "Oc1c(N=Nc2ccccn2)ccc2ccccc12",
    "Endpoint unit": "%",
    "GFP response relative to DMSO": 66
  },
  {
    "Compound": "Cc1ccc2[nH]c3c(=O)n(CC(=O)N4CCN(C)CC4)ncc3c2c1",
    "Endpoint unit": "%",
    "GFP response relative to DMSO": 96.1
  },
  {
    "Compound": "Cc1ccc(S(=O)(=O)/N=C(\\Sc2ccccc2)c2ccccc2)cc1",
    "Endpoint unit": "%",
    "GFP response relative to DMSO": 148
  },
  {
    "Compound": "COCCNC(=O)/C(C#N)=C/c1c(N2CC(C)OC(C)C2)nc2ccccn2c1=O (stereo not drawn)",
    "Endpoint unit": "%",
    "GFP response relative to DMSO": 97.3
  },
  {
    "Compound": "Cc1cc(S(=O)(=O)ON2C(=O)c3ccccc3C2=O)ccc1F",
    "Endpoint unit": "%",
    "GFP response relative to DMSO": 160
  },
  {
    "Compound": "COc1cc(C2CC(c3cccnc3)=NN2c2ccc(F)cc2)cc(OC)c1OC (stereo not drawn)",
    "Endpoint unit": "%",
    "GFP response relative to DMSO": 95.4
  },
  {
    "Compound": "COc1ccccc1-c1nnc(NC(=O)c2ccc(S(=O)(=O)N(C)C)cc2)o1",
    "Endpoint unit": "%",
    "GFP response relative to DMSO": 109
  },
  {
    "Compound": "CCCc1nn(-c2ccccc2)c2c1C(c1cccs1)C(C#N)=C(N)O2 (stereo not drawn)",
    "Endpoint unit": "%",
    "GFP response relative to DMSO": 95.2
  },
  {
    "Compound": "COc1ccc(CNC(=O)c2c(O)c3ccccc3n(C)c2=O)cc1OC",
    "Endpoint unit": "%",
    "GFP response relative to DMSO": 91.3
  },
  {
    "Compound": "COCc1nnc(NC(=O)c2ccc(S(=O)(=O)N3CCCCCC3)cc2)o1",
    "Endpoint unit": "%",
    "GFP response relative to DMSO": 107
  },
  {
    "Compound": "O=C(Cn1c(=O)oc2cc(S(=O)(=O)N3CCCC3)ccc21)Nc1ccccc1Br",
    "Endpoint unit": "%",
    "GFP response relative to DMSO": 96.1
  },
  {
    "Compound": "CCCCCn1c(=O)c(C(=O)OCC)c(O)c2ccccc21",
    "Endpoint unit": "%",
    "GFP response relative to DMSO": 100
  },
  {
    "Compound": "Cc1cccc(N=c2c([N+](=O)[O-])nn(-c3ccc(Cl)cc3)n2O)c1",
    "Endpoint unit": "%",
    "GFP response relative to DMSO": 114
  },
  {
    "Compound": "Cc1cc(-n2nc(C)cc2C)n2ncc(-c3ccccc3)c2n1",
    "Endpoint unit": "%",
    "GFP response relative to DMSO": 96.2
  },
  {
    "Compound": "C/C(=N\\NC(=O)c1nonc1N)c1cccs1",
    "Endpoint unit": "%",
    "GFP response relative to DMSO": 100
  },
  {
    "Compound": "O=[N+]([O-])c1cc(F)c2cccnc2c1O",
    "Endpoint unit": "%",
    "GFP response relative to DMSO": 204
  },
  {
    "Compound": "O=C1CC(c2ccccc2)CN1S(=O)(=O)c1ccccc1 (stereo not drawn)",
    "Endpoint unit": "%",
    "GFP response relative to DMSO": 97.2
  },
  {
    "Compound": "Oc1ccc(-c2nc3ccccn3c2NCc2ccco2)cc1",
    "Endpoint unit": "%",
    "GFP response relative to DMSO": 99.3
  },
  {
    "Compound": "Cc1nnc(NC(=O)c2ccc(S(=O)(=O)N(C)Cc3ccccc3)cc2)o1",
    "Endpoint unit": "%",
    "GFP response relative to DMSO": 101
  }
]

====

Measured GFP response relative to DMSO values are reported for all entries that follow.
- Assay info: LAP4-GFP expression modulators in yeast, confirmation, cell-based, cherry picks, flow cytometry, mother/daughter gates (AID 2271);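 note: ratio of sample to DMSO plate mean so 100% equals DMSO level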
- Experimental conditions: S. cerevisiae LAP4-GFP strain, 3 h, measured here: mother cell gate response, at 10 µM, stronger effect = higher value, 100 means same as DMSO control

[
  {
    "Molecule": "C/C(=N\\Nc1ncnc2sc(C)c(C)c12)c1ccccn1",
    "GFP response relative to DMSO (%)": 395
  },
  {
    "Molecule": "O=[N+]([O-])c1cc(C(F)(F)F)ccc1Sc1ccccn1",
    "GFP response relative to DMSO (%)": 98.3
  },
  {
    "Molecule": "COc1ccc(/C=N\\NC(=O)c2cc(OCC(F)(F)F)ccc2OCC(F)(F)F)cc1",
    "GFP response relative to DMSO (%)": 98.3
  },
  {
    "Molecule": "Clc1ccc(-n2nnnc2Sc2ncnc3sccc23)cc1",
    "GFP response relative to DMSO (%)": 130
  },
  {
    "Molecule": "CCn1c2ccccc2c2cc(/C=N/n3cn[nH]c3=S)ccc21",
    "GFP response relative to DMSO (%)": 141
  },
  {
    "Molecule": "CCN1/C(=C/C(C)=C/c2sc3ccccc3[n+]2CC)Sc2ccccc21",
    "GFP response relative to DMSO (%)": 211
  },
  {
    "Molecule": "CCCc1[nH]nc2c1C(c1ccc(Br)s1)C(C#N)=C(N)O2 (stereo not drawn)",
    "GFP response relative to DMSO (%)": 137
  },
  {
    "Molecule": "Cc1cc(=O)oc2cc(OC(C)C(=O)NC3CCCC3)ccc12 (stereo not drawn)",
    "GFP response relative to DMSO (%)": 95.2
  },
  {
    "Molecule": "O=C(Nc1ccccc1C(F)(F)F)c1cc(-c2ccc(O)cc2)on1",
    "GFP response relative to DMSO (%)": 108
  },
  {
    "Molecule": "O=C(Nc1cccnc1)c1ccc(-c2ccc(Cl)cc2)o1",
    "GFP response relative to DMSO (%)": 103
  },
  {
    "Molecule": "CCN(CC)c1ccc(/C=C/c2cccc[n+]2C)c(OC)c1",
    "GFP response relative to DMSO (%)": 116
  },
  {
    "Molecule": "Cc1ccc(C2=NN(S(C)(=O)=O)C(c3ccc4nccnc4c3)C2)cc1 (stereo not drawn)",
    "GFP response relative to DMSO (%)": 99.3
  },
  {
    "Molecule": "Cc1nn2c(NCc3ccccn3)c3c(nc2c1-c1ccccc1)CCC3",
    "GFP response relative to DMSO (%)": 114
  },
  {
    "Molecule": "COc1cccc2c1Oc1ncccc1N(C(=O)CCC(=O)NCc1ccccc1F)C2",
    "GFP response relative to DMSO (%)": 139
  },
  {
    "Molecule": "Cc1ccc(C(=O)c2nocc2C(=O)c2cccs2)cc1",
    "GFP response relative to DMSO (%)": 128
  },
  {
    "Molecule": "CC(C)C(=O)NC(c1cccs1)c1cc([N+](=O)[O-])c2cccnc2c1O (stereo not drawn)",
    "GFP response relative to DMSO (%)": 99.4
  },
  {
    "Molecule": "CCC(=O)c1ccc(N2CCN(C(=O)c3ccc(Br)cc3)CC2)c(F)c1",
    "GFP response relative to DMSO (%)": 112
  },
  {
    "Molecule": "O=[N+]([O-])c1ccc(Cl)cc1Sc1ccccn1",
    "GFP response relative to DMSO (%)": 91.3
  },
  {
    "Molecule": "COC(=O)CCS(=O)(=O)c1nc(-c2ccccc2)cc(C(F)(F)F)n1",
    "GFP response relative to DMSO (%)": 170
  },
  {
    "Molecule": "Nc1cccc(C(=O)Nc2ccccc2Cl)c1",
    "GFP response relative to DMSO (%)": 98.3
  },
  {
    "Molecule": "CCCn1c(=O)c(C(=O)Nc2ccccc2C(=O)OC)c(O)c2ccccc21",
    "GFP response relative to DMSO (%)": 95.2
  },
  {
    "Molecule": "COC(=O)/C(=C/c1c[nH]c2ccccc12)[N+](=O)[O-]",
    "GFP response relative to DMSO (%)": 164
  },
  {
    "Molecule": "COc1ccc(C(=O)c2nccc3ccccc23)cc1",
    "GFP response relative to DMSO (%)": 99.3
  }
]
